The next entries give measured pKi for Histone deacetylase 1 (Homo sapiens, UniProt Q13547).
Scale note: pKi = -log10(concentration in M).

Smiles Representation: C=C[C@@H](O)[C@@H]1O[C@H]1/C=C/[C@@H]1O[C@H]1[C@@H](C)O
pKi: 5.26
//
Smiles Representation: Cn1c(/C=C/C(=O)NO)ccc1C(=O)Cc1ccccc1
pKi: 7.26
//
Smiles Representation: O=C(/C=C/c1ccc(C(=O)N/N=C/c2ccc(O)c(O)c2O)cc1)NO
pKi: 6.92

Proceed to the following item.
For record `C/C=C1\NC(=O)[C@H]2CSSCC/C=C/[C@H](CC(=O)N[C@H](C(C)C)C(=O)N2)OC(=O)[C@H](C(C)C)NC1=O` the listed pKi is 11.82

---

// values below are reported log10(Ki)
Molecular target: UniProtKB Q9UBN7
Sequence (Q9UBN7 whole entry): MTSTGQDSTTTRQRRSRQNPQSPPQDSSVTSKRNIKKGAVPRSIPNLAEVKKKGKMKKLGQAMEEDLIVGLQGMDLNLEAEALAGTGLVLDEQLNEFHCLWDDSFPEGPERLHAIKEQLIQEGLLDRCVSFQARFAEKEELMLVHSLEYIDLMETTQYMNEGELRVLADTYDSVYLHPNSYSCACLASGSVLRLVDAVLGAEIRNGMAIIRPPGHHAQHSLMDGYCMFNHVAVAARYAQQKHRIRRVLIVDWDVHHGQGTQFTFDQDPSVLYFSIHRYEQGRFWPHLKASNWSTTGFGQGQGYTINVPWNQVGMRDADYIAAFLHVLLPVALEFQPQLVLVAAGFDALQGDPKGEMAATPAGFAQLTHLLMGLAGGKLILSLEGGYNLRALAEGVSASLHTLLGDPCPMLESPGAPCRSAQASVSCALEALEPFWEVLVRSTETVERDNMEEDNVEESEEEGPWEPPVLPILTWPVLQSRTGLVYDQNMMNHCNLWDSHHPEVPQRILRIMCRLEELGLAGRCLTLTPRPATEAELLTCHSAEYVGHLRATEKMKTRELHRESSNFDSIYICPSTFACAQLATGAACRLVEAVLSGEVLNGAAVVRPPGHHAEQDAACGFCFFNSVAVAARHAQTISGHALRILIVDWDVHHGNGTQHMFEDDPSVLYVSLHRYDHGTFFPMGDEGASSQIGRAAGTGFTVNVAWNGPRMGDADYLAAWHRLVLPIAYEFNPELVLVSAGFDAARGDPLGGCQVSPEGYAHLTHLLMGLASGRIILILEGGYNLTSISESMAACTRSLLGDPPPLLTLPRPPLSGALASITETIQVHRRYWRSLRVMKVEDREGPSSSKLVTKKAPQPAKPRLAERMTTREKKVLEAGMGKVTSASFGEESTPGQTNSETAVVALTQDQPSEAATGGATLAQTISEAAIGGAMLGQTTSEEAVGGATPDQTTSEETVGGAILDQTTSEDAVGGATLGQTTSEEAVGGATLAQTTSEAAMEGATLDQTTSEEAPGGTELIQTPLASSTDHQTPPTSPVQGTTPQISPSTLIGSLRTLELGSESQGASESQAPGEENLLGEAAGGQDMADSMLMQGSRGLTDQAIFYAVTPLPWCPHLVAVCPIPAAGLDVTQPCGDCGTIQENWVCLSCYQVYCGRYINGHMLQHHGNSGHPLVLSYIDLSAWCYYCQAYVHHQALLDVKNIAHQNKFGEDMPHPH
Please note: log10 values; quantity Ki; unit nM.

Answered cases to consult:
Compound: O=C(CCCCCCC(=O)Nc1cccnc1)NO [PYROXAMIDE]
log10(Ki): 0.68

Compound: O=C(/C=C/c1cccc(S(=O)(=O)Nc2ccccc2)c1)NO
log10(Ki): 0.20

Compound: O=C(CCCc1ccccc1)NO [PHENYLBUTYRYLHYDROXAMIC ACID]
log10(Ki): 2.18

Compound: O=C(CCCCCCC(=O)NO)NO [SUBEROHYDROXAMIC ACID]
log10(Ki): 1.16

Compound: O=C(/C=C/c1ccc(C(=O)N/N=C/c2ccc(O)c(O)c2O)cc1)NO
log10(Ki): 1.51

GET /value?item= `O=C(O)CCCCCCC(=O)Nc1ccc([C@H]2O[C@@H](CSc3nc(-c4ccccc4)c(-c4ccccc4)o3)C[C@@H](c3ccc(CO)cc3)O2)cc1` &field=log10(Ki) returns 3.34

log10(Ki) reported for this compound `Cn1c(/C=C/C(=O)NO)ccc1C(=O)Cc1ccccc1` : 1.48

---

The following molecules each carry a recorded pKi for Histone deacetylase 8 (Homo sapiens, UniProt Q9BY41).
By convention, pKi is the negative base-10 log of a molar concentration.

Item: O=C(CCCc1ccccc1)NO [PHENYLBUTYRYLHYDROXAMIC ACID] | pKi: 5.73

Please fill in: pKi reported for `Cn1c(/C=C/C(=O)NO)ccc1C(=O)Cc1ccccc1` = 6.22

Summary for this molecule, O=C(CCCCCCC(=O)Nc1cccnc1)NO [PYROXAMIDE] : pKi is 6.00

GET /value?item= `O=C(/C=C/c1ccc(C(=O)N/N=C/c2ccc(O)c(O)c2O)cc1)NO` &field=pKi returns 7.30

---

Form: system (Histone deacetylase 4 (Homo sapiens)), quantity (Ki), values below.
Field format: number, assumed nM, no unit text.

Guide cases for Ki, answers given:
Smiles Representation: O=C(/C=C/c1cccc(S(=O)(=O)Nc2ccccc2)c1)NO
Ki / nM: 380

Smiles Representation: O=C(/C=C/c1ccc(C(=O)N/N=C/c2ccc(O)c(O)c2O)cc1)NO
Ki / nM: 950

Smiles Representation: CCN(CC)Cc1ccc2cc(COC(=O)Nc3ccc(C(=O)NO)cc3)ccc2c1
Ki / nM: 1050

Known value: Histone deacetylase 4 (Homo sapiens) Ki of the molecule `Cn1c(/C=C/C(=O)NO)ccc1C(=O)Cc1ccccc1` equals 17500

---

Each entry below carries its recorded Ki.
Target: Histone deacetylase 7 (Homo sapiens, UniProt Q8WUI4)
Sequence (Q8WUI4 whole entry): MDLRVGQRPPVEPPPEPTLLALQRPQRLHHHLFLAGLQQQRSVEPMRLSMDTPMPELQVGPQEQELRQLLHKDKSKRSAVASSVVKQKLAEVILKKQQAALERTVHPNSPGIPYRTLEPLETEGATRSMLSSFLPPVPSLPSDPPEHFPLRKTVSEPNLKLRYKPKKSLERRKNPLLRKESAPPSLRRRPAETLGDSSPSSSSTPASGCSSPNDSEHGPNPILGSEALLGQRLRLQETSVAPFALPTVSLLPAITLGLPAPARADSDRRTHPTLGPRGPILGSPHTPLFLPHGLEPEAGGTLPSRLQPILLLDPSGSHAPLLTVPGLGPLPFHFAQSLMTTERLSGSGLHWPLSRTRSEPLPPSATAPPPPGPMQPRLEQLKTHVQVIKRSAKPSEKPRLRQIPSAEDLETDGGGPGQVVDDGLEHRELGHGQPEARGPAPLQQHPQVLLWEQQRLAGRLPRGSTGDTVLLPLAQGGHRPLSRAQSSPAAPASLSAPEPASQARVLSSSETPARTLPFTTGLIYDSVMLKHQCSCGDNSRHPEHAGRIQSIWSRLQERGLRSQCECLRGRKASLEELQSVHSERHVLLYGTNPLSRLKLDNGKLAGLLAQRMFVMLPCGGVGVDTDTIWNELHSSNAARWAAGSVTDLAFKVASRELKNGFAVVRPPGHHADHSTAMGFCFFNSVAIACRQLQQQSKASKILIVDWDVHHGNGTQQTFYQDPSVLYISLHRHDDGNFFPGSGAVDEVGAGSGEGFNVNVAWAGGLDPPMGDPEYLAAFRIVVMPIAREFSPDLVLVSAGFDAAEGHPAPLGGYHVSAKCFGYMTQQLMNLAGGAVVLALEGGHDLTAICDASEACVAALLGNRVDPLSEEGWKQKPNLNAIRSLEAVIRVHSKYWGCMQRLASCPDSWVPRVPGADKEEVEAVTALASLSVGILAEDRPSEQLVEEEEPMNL
Answer in µM, number only, no unit symbol.

Smiles Representation: O=C(/C=C/c1ccc(C(=O)N/N=C/c2ccc(O)c(O)c2O)cc1)NO
Metric: Ki
Unit Info: µM
Val: 1.1

Now, please, on to the next molecule.
Measured Ki, `Cn1c(/C=C/C(=O)NO)ccc1C(=O)Cc1ccccc1` : 7

---

Observed pKi values for Histone deacetylase 5 (Homo sapiens) are listed in what follows.
Quick note: pKi values are minus log10 of concentrations in mol/L.

Compound: O=C(CCCc1ccccc1)NO [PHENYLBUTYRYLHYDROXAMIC ACID]
pKi: 4.80

The compound identified as `CCN(CC)Cc1ccc2cc(COC(=O)Nc3ccc(C(=O)NO)cc3)ccc2c1` registered its pKi at 6.22

Form field pKi, entry O=C(CCCCCCC(=O)Nc1cccnc1)NO [PYROXAMIDE] : 5.32

So for O=C(CCCCCCC(=O)NO)NO [SUBEROHYDROXAMIC ACID] , the logged pKi turned out to be 5.02

Lab note: `O=C(/C=C/c1ccc(C(=O)N/N=C/c2ccc(O)c(O)c2O)cc1)NO` gave pKi of 6.74

# pKi of `Cn1c(/C=C/C(=O)NO)ccc1C(=O)Cc1ccccc1` = 4.94
